These measurements were taken from ChEMBL document CHEMBL4406851.

Test: Neuroprotective activity against H2O2-induced cell damage in human HBMEC2 cells assessed as increase in cell viability preincubated for 24 hrs followed by H2O2 addition and measured after 4 hrs by MTT assay
Format: functional, cell-based
Conditions: HBMEC-2
READOUT KIND: EC50

The compound listed as COc1cc(CNC(=O)/C=C/c2ccc(OC)c(OCc3nc(C)c(C)nc3C)c2)ccc1O shows EC50 equal to 9.3 µM

The compound listed as COc1cc(CNC(=O)/C=C/c2ccccc2O)ccc1O shows EC50 equal to 7.46 µM

The compound listed as COc1cc(CNC(=O)/C=C/c2cc(OC)c(OC)cc2OC)ccc1O shows EC50 equal to 3.26 µM

The compound listed as COc1cc(CNC(=O)/C=C/c2ccc(OC)c(OCc3nc(C)c(C)nc3C)c2)ccc1OCc1nc(C)c(C)nc1C shows EC50 equal to 14.6 µM

----------
Assay: Neuroprotective activity against H2O2-induced cell damage in human HBMEC2 cells assessed as increase in cell viability preincubated for 24 hrs followed by H2O2 addition and measured after 4 hrs by MTT assay
Assay type: functional, cell-based
Conditions: HBMEC-2
Field: label. Allowed values: label 1 (EC50 < 10 µM) or label 0 (EC50 >= 10 µM).

# strict comparison: is reported EC50 < 10 µM? input = COc1cc(CNC(=O)/C=C/c2ccccc2O)ccc1OCc1nc(C)c(C)nc1C
label 1

# strict comparison: is reported EC50 < 10 µM? input = COc1cc(CNC(=O)/C=C/c2ccc(OCc3nc(C)c(C)nc3C)c(OC)c2)ccc1O
label 0

# strict comparison: is reported EC50 < 10 µM? input = COc1cc(CNC(=O)/C=C/c2ccccc2OC)ccc1O
label 1

# strict comparison: is reported EC50 < 10 µM? input = COc1cc(CNC(=O)/C=C/c2cccc(O)c2)ccc1OCc1nc(C)c(C)nc1C
label 1

# strict comparison: is reported EC50 < 10 µM? input = COc1cc(/C=C/C(=O)NCc2ccc(OCc3nc(C)c(C)nc3C)c(OC)c2)ccc1O
label 1

# strict comparison: is reported EC50 < 10 µM? input = COc1cc(/C=C/C(=O)NCc2ccc(O)c(OC)c2)ccc1O
label 1

# strict comparison: is reported EC50 < 10 µM? input = COc1cc(CNC(=O)/C=C/c2cc(OC)c(OC)c(OC)c2)ccc1OCc1nc(C)c(C)nc1C
label 1

# strict comparison: is reported EC50 < 10 µM? input = COc1ccc(/C=C/C(=O)NCc2ccc(OCc3nc(C)c(C)nc3C)c(OC)c2)cc1OC
label 0

# strict comparison: is reported EC50 < 10 µM? input = COc1cc(CNC(=O)/C=C/c2ccc(OC)c(OC)c2OC)ccc1OCc1nc(C)c(C)nc1C
label 0

# strict comparison: is reported EC50 < 10 µM? input = COc1ccc(/C=C/C(=O)NCc2ccc(OCc3nc(C)c(C)nc3C)c(OC)c2)cc1
label 1

# strict comparison: is reported EC50 < 10 µM? input = COc1cc(CNC(=O)CCCC/C=C/C(C)C)ccc1O [CAPSAICIN]
label 0

# strict comparison: is reported EC50 < 10 µM? input = COc1ccc(/C=C/C(=O)NCc2ccc(O)c(OC)c2)cc1
label 0

# strict comparison: is reported EC50 < 10 µM? input = COc1cc(CNC(=O)/C=C/c2ccc(OCc3nc(C)c(C)nc3C)cc2)ccc1OCc1nc(C)c(C)nc1C
label 0

# strict comparison: is reported EC50 < 10 µM? input = COc1cc(CNC(=O)/C=C/c2cc(OC)c(OC)c(OC)c2)ccc1O
label 1

# strict comparison: is reported EC50 < 10 µM? input = COc1cc(CNC(=O)/C=C/c2cccc(OC)c2OC)ccc1O
label 0

# strict comparison: is reported EC50 < 10 µM? input = COc1cc(/C=C/C(=O)NCc2ccc(OCc3nc(C)c(C)nc3C)c(OC)c2)ccc1OCc1nc(C)c(C)nc1C
label 0

# strict comparison: is reported EC50 < 10 µM? input = COc1cc(CNC(=O)/C=C/c2ccc(O)cc2)ccc1OCc1nc(C)c(C)nc1C
label 1

# strict comparison: is reported EC50 < 10 µM? input = COc1cc(CNC(=O)/C=C/c2ccc(OC)c(OC)c2OC)ccc1O
label 1

# strict comparison: is reported EC50 < 10 µM? input = COc1cc(CNC(=O)/C=C/c2cccc(OC)c2OC)ccc1OCc1nc(C)c(C)nc1C
label 1

# strict comparison: is reported EC50 < 10 µM? input = COc1cc(OC)c(OC)cc1/C=C/C(=O)NCc1ccc(OCc2nc(C)c(C)nc2C)c(OC)c1
label 0

# strict comparison: is reported EC50 < 10 µM? input = COc1ccc(/C=C/C(=O)NCc2ccc(OCc3nc(C)c(C)nc3C)c(OC)c2)cc1O
label 0

# strict comparison: is reported EC50 < 10 µM? input = COc1ccccc1/C=C/C(=O)NCc1ccc(OCc2nc(C)c(C)nc2C)c(OC)c1
label 0

# strict comparison: is reported EC50 < 10 µM? input = COc1cc(/C=C/C(=O)NCc2ccc(O)c(OC)c2)cc(OC)c1
label 1

# strict comparison: is reported EC50 < 10 µM? input = COc1cc(/C=C/C(=O)NCc2ccc(OCc3nc(C)c(C)nc3C)c(OC)c2)cc(OC)c1
label 0

# strict comparison: is reported EC50 < 10 µM? input = CC1=NN(c2ccccc2)C(=O)C1 [EDARAVONE]
label 1

# strict comparison: is reported EC50 < 10 µM? input = COc1ccc(/C=C/C(=O)NCc2ccc(O)c(OC)c2)cc1O
label 0

# strict comparison: is reported EC50 < 10 µM? input = COc1cc(CNC(=O)/C=C/c2ccc(O)cc2)ccc1O
label 1

# strict comparison: is reported EC50 < 10 µM? input = COc1cc(CNC(=O)/C=C/c2cccc(O)c2)ccc1O
label 1

# strict comparison: is reported EC50 < 10 µM? input = COc1cc(CNC(=O)/C=C/c2cccc(OCc3nc(C)c(C)nc3C)c2)ccc1OCc1nc(C)c(C)nc1C
label 0

# strict comparison: is reported EC50 < 10 µM? input = COc1cc(CNC(=O)/C=C/c2ccc(OC)c(OC)c2)ccc1O
label 1

# strict comparison: is reported EC50 < 10 µM? input = COc1cc(CNC(=O)/C=C/c2ccccc2OCc2nc(C)c(C)nc2C)ccc1O
label 1

# strict comparison: is reported EC50 < 10 µM? input = COc1cc(CNC(=O)/C=C/c2ccc(OCc3nc(C)c(C)nc3C)cc2)ccc1O
label 0

# strict comparison: is reported EC50 < 10 µM? input = COc1cc(CNC(=O)/C=C/c2ccccc2)ccc1OCc1nc(C)c(C)nc1C
label 1

# strict comparison: is reported EC50 < 10 µM? input = COc1ccc(OC)c(/C=C/C(=O)NCc2ccc(OCc3nc(C)c(C)nc3C)c(OC)c2)c1
label 0

# strict comparison: is reported EC50 < 10 µM? input = COc1cc(CNC(=O)/C=C/c2cccc(OCc3nc(C)c(C)nc3C)c2)ccc1O
label 0

# strict comparison: is reported EC50 < 10 µM? input = Cc1nc(C)c(C)nc1C [LIGUSTRAZINE]
label 0

# strict comparison: is reported EC50 < 10 µM? input = COc1cc(CNC(=O)/C=C/c2ccccc2OCc2nc(C)c(C)nc2C)ccc1OCc1nc(C)c(C)nc1C
label 0

# strict comparison: is reported EC50 < 10 µM? input = COc1cccc(/C=C/C(=O)NCc2ccc(O)c(OC)c2)c1
label 1

# strict comparison: is reported EC50 < 10 µM? input = COc1ccc(OC)c(/C=C/C(=O)NCc2ccc(O)c(OC)c2)c1
label 0
